Assay System: bradykinin receptor of the B2 class (guinea-pig ileum) (Cavia porcellus)
Sequence (O70526 1-372): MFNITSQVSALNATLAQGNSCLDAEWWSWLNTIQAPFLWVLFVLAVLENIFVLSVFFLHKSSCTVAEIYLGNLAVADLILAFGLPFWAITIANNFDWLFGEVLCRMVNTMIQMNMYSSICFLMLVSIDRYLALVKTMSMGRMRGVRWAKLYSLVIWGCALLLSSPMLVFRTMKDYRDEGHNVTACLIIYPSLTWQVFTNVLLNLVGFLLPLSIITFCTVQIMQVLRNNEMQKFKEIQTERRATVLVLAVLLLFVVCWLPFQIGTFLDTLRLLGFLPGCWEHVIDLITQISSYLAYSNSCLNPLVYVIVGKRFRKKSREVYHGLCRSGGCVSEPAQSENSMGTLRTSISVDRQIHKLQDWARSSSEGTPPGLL
Peptide text beside a SMILES is read from it.
Readout Name: Kb (nM)
Numbers only here, please. The scale is nM.

**Q:** State, in one line, measured Kb of CC(C)C[C@H](NC(=O)[C@@H](Cc1ccccc1)NC(=O)[C@H](CO)NC(=O)[C@H](Cc1ccccc1)NC(=O)CNC(=O)[C@@H]1C[C@@H](O)CN1C(=O)[C@@H]1CCCN1C(=O)[C@H](CCCNC(=N)N)NC(=O)[C@H](N)CCCNC(=N)N)C(=O)N[C@@H](CCCNC(=N)N)C(=O)O [CP-0088, reference compound] (HELM PEPTIDE1{[dR].R.P.[Hyp].G.F.S.[dF].L.R}$$$$V2.0)
**A:** 251

----------
# Lookup of reported % REC MONOMER keyed by entry
Assay System: bradykinin receptor of the B2 class (rat uterus) (Rattus norvegicus)
Construct: concentration effect curves to bradykinin (BK) on rat uterus in vitro; from tissue; host or cells: rat uterus
Method Notes: Rat uterus (RU) in vitro, antagonism of bradykinin
Condition Context: Table C; rat uterus
Peptide text beside a SMILES is read from it.
Numbers only here, please. The scale is %.

CC(C)C[C@H](NC(=O)[C@@H](Cc1ccccc1)NC(=O)[C@H](CO)NC(=O)[C@H](Cc1ccccc1)NC(=O)CNC(=O)[C@@H]1C[C@@H](O)CN1C(=O)[C@@H]1CCCN1C(=O)[C@H](CCCNC(=N)N)NC(=O)[C@H](N)CS)C(=O)N[C@@H](CCCNC(=N)N)C(=O)O [CP-0149] (HELM PEPTIDE1{[dC].R.P.[Hyp].G.F.S.[dF].L.R}$$$$V2.0): 75

**Q:** State, in one line, measured % REC MONOMER of CC(C)C[C@H](NC(=O)[C@@H](Cc1ccccc1)NC(=O)[C@H](CO)NC(=O)[C@H](Cc1ccccc1)NC(=O)CNC(=O)[C@@H]1C[C@@H](O)CN1C(=O)[C@@H]1CCCN1C(=O)[C@H](CCCNC(=N)N)NC(=O)[C@@H](N)CS)C(=O)N[C@@H](CCCNC(=N)N)C(=O)O [CP-0140] (HELM PEPTIDE1{C.R.P.[Hyp].G.F.S.[dF].L.R}$$$$V2.0)
**A:** 50

----------
Assay System: bradykinin receptor of the B2 class (rat uterus) (Rattus norvegicus, UniProt P25023)
Construct: concentration effect curves to bradykinin (BK) on rat uterus in vitro; from tissue; host or cells: rat uterus
Sequence (P25023 1-396): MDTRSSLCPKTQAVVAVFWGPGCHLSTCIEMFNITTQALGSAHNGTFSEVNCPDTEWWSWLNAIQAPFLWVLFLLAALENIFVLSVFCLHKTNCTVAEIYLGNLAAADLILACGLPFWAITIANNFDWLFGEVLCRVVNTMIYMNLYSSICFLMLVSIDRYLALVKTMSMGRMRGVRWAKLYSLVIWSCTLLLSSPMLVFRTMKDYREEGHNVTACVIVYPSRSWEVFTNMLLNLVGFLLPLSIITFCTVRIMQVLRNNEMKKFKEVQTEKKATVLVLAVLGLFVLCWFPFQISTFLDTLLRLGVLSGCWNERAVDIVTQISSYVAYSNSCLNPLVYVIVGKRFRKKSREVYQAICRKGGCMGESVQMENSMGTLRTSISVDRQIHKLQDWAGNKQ
Method Notes: Rat uterus (RU) in vitro, antagonism of bradykinin
Condition Context: Table C; rat uterus; P.A. = Partial Agonist
Peptide text beside a SMILES is read from it.
Readout Name: pA2 MONOMER

CC(C)C[C@H](NC(=O)[C@@H](Cc1ccccc1)NC(=O)[C@H](CO)NC(=O)[C@H](Cc1ccccc1)NC(=O)CNC(=O)[C@@H]1C[C@@H](O)CN1C(=O)[C@@H]1CCCN1C(=O)[C@H](CCCNC(=N)N)NC(=O)[C@H](N)CCCNC(=N)N)C(=O)N[C@@H](CS)C(=O)O [CP-0148] (HELM PEPTIDE1{[dR].R.P.[Hyp].G.F.S.[dF].L.C}$$$$V2.0): Inactive
CC(C)C[C@H](NC(=O)[C@H](CS)NC(=O)[C@H](CO)NC(=O)[C@H](Cc1ccccc1)NC(=O)CNC(=O)[C@@H]1C[C@@H](O)CN1C(=O)[C@@H]1CCCN1C(=O)[C@H](CCCNC(=N)N)NC(=O)[C@H](N)CCCNC(=N)N)C(=O)N[C@@H](CCCNC(=N)N)C(=O)O [CP-0145] (HELM PEPTIDE1{[dR].R.P.[Hyp].G.F.S.C.L.R}$$$$V2.0): Inactive
CC(C)C[C@H](NC(=O)[C@@H](Cc1ccccc1)NC(=O)[C@H](CO)NC(=O)[C@H](Cc1ccccc1)NC(=O)CNC(=O)[C@@H]1C[C@@H](O)CN1C(=O)[C@@H]1CCCN1C(=O)[C@H](CCCNC(=N)N)NC(=O)[C@H](N)CCCNC(=N)N)C(=O)N[C@@H](CCCNC(=N)N)C(=O)O [CP-0088, reference compound] (HELM PEPTIDE1{[dR].R.P.[Hyp].G.F.S.[dF].L.R}$$$$V2.0): 7.4

----------
Assay System: bradykinin receptor of the B2 class (rat uterus) (Rattus norvegicus)
Construct: concentration effect curves to bradykinin (BK) on rat uterus in vitro; from tissue; host or cells: rat uterus
Sequence (P25023 1-396): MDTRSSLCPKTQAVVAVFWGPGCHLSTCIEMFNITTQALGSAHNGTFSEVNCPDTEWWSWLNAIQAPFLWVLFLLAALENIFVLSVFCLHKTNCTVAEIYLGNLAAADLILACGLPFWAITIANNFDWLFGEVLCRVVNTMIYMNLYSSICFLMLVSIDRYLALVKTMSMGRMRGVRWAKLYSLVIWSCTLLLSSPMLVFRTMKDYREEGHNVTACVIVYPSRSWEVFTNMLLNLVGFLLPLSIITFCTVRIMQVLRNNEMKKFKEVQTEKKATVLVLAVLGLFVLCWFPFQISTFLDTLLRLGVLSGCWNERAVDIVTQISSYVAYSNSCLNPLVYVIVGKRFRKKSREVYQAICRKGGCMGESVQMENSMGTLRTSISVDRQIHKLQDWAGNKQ
Method Notes: Rat uterus (RU) in vitro, antagonism of bradykinin
Condition Context: Table C; rat uterus; P.A. = Partial Agonist
Peptide text beside a SMILES is read from it.
Readout Name: pA2 MONOMER

CC(C)C[C@H](NC(=O)[C@@H](Cc1ccccc1)NC(=O)[C@H](CO)NC(=O)[C@H](Cc1ccccc1)NC(=O)[C@H](CS)NC(=O)[C@@H]1C[C@@H](O)CN1C(=O)[C@@H]1CCCN1C(=O)[C@H](CCCNC(=N)N)NC(=O)[C@H](N)CCCNC(=N)N)C(=O)N[C@@H](CCCNC(=N)N)C(=O)O [CP-0136] (HELM PEPTIDE1{[dR].R.P.[Hyp].C.F.S.[dF].L.R}$$$$V2.0): Inactive
CC(C)C[C@H](NC(=O)[C@@H](Cc1ccccc1)NC(=O)[C@H](CO)NC(=O)[C@H](Cc1ccccc1)NC(=O)CNC(=O)[C@H](CS)NC(=O)[C@@H]1CCCN1C(=O)[C@H](CCCNC(=N)N)NC(=O)[C@H](N)CCCNC(=N)N)C(=O)N[C@@H](CCCNC(=N)N)C(=O)O [CP-0143] (HELM PEPTIDE1{[dR].R.P.C.G.F.S.[dF].L.R}$$$$V2.0): P.A.
N=C(N)NCCC[C@@H](N)C(=O)N[C@@H](CCCNC(=N)N)C(=O)N1CCC[C@H]1C(=O)N1C[C@H](O)C[C@H]1C(=O)NCC(=O)N[C@@H](Cc1ccccc1)C(=O)N[C@@H](CO)C(=O)N[C@H](Cc1ccccc1)C(=O)N[C@@H](CS)C(=O)N[C@@H](CCCNC(=N)N)C(=O)O [CP-0147] (HELM PEPTIDE1{[dR].R.P.[Hyp].G.F.S.[dF].C.R}$$$$V2.0): Inactive

----------
Square brackets hold non-standard residues; d marks the D form. Peptide text beside a SMILES is read from it. * marks the point of attachment. Hyp = O=C(O)[C@@H]1C[C@@H](O)CN1; X8 = O=C1CC(*)C(=O)N1
// endpoint Kb / system bradykinin receptor of the B2 class (guinea-pig ileum) (Cavia porcellus)

Example cases with answers are listed next.
CC(C)C[C@H](NC(=O)[C@@H](Cc1ccccc1)NC(=O)[C@H](CS)NC(=O)[C@H](Cc1ccccc1)NC(=O)CNC(=O)[C@@H]1C[C@@H](O)CN1C(=O)[C@@H]1CCCN1C(=O)[C@H](CCCNC(=N)N)NC(=O)[C@H](N)CCCNC(=N)N)C(=O)N[C@@H](CCCNC(=N)N)C(=O)O [CP-0126] (HELM PEPTIDE1{[dR].R.P.[Hyp].G.F.C.[dF].L.R}$$$$V2.0): 0.501 µM
CC(C)C[C@H](NC(=O)[C@@H](Cc1ccccc1)NC(=O)[C@H](CSC1CC(=O)NC1=O)NC(=O)[C@H](Cc1ccccc1)NC(=O)CNC(=O)[C@@H]1C[C@@H](O)CN1C(=O)[C@@H]1CCCN1C(=O)[C@H](CCCNC(=N)N)NC(=O)[C@H](N)CCCNC(=N)N)C(=O)N[C@@H](CCCNC(=N)N)C(=O)O (stereo partly shown) [CP-0139] (H-[dR]RP[Hyp]GFC(X8)[dF]LR-OH): ~0.0794 µM
CC(C)C[C@H](NC(=O)[C@@H](Cc1ccccc1)NC(=O)[C@H](CO)NC(=O)[C@H](Cc1ccccc1)NC(=O)CNC(=O)[C@@H]1C[C@@H](O)CN1C(=O)[C@@H]1CCCN1C(=O)[C@H](CCCNC(=N)N)NC(=O)[C@H](N)CS)C(=O)N[C@@H](CCCNC(=N)N)C(=O)O [CP-0149] (HELM PEPTIDE1{[dC].R.P.[Hyp].G.F.S.[dF].L.R}$$$$V2.0): ~0.501 µM

Lab note: next compound to report on.
**Q:** Enter measured Kb, system bradykinin receptor of the B2 class (guinea-pig ileum) (Cavia porcellus), for the compound shown: CC(C)C[C@H](NC(=O)[C@@H](Cc1ccccc1)NC(=O)[C@H](CO)NC(=O)[C@H](Cc1ccccc1)NC(=O)CNC(=O)[C@@H]1C[C@@H](O)CN1C(=O)[C@H](CS)NC(=O)[C@H](CCCNC(=N)N)NC(=O)[C@H](N)CCCNC(=N)N)C(=O)N[C@@H](CCCNC(=N)N)C(=O)O [CP-0142] (HELM PEPTIDE1{[dR].R.C.[Hyp].G.F.S.[dF].L.R}$$$$V2.0)
**A:** ~2 µM
